FYI, the data here is from PubChem BioAssay AID2060912.

- Tested on: HUVEC/MSC spheroids viability
- Test: Human HUVEC/MSC cell line growth inhibition [KRAS2];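 further: percent of DMSO vehicle control luminescence so 100% = untreated viability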
- Test Context: second compound 3.16 µM; first compound 1 µM; active compounds read low
- From the text: Multicellular complex tumor spheroid response to RAS pathway inhibitors in combination with a targeted agents in patient-derived cell lines with oncogenic KRAS variants from multiple cancer types A high-throughput screen of multi-cell type tumor spheroids was designed to identify active combinations of targeted small molecules and KRAS pathway inhibitors. […] Compounds. […] If the clinical Cmax for an agent had not been determined, the highest concentration tested was 10 microM. […]
Measured Quantity: viability, T/C (%)
// units = %; emit number, no label

Recorded results for 2 molecules are shown here.
>>> assay_result("CCNC(=O)CC1N=C(c2ccc(Cl)cc2)c2cc(OC)ccc2-n2c(C)nnc21 (stereo not drawn) + CC1OCC2(CCN(c3cnc(Sc4ccnc(N)c4Cl)c(N)n3)CC2)C1N")
73.8
>>> assay_result("COC(=O)c1ccc2c(C(=Nc3ccc(N(C)C(=O)CN4CCN(C)CC4)cc3)c3ccccc3)c(O)[nH]c2c1 + CNCc1ccccc1-c1csc(C(C)Nc2nc(C)nc3cc(OC)c(OC)cc23)c1")
53.1

Now turn to the next molecule.
Item CC1(C)CCC(CN2CCN(c3ccc(C(=O)NS(=O)(=O)c4ccc(NCC5CCOCC5)c([N+](=O)[O-])c4)c(Oc4cnc5[nH]ccc5c4)c3)CC2)=C(c2ccc(Cl)cc2)C1 + CC1OCC2(CCN(c3cnc(Sc4ccnc(N)c4Cl)c(N)n3)CC2)C1N : provide viability, T/C
66.1

* * *

- System: HUVEC/MSC spheroids viability
- Test: Human HUVEC/MSC cell line growth inhibition [KRAS2]; active means viability on the fitted dose curve at most 10% of control; inactive means the rest;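 further: percent of DMSO vehicle control luminescence so 100% = untreated viability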
- Test Context: second compound 3.16 µM; first compound 10 µM
Field 'call' accepts label 1 (active), label 0 (inactive)

>>> category("Cn1nccc1Nc1nccc(-c2cc3c(s2)C(C)(C)N(CCN2CCOCC2)C3=O)n1 + CNCc1ccccc1-c1csc(C(C)Nc2nc(C)nc3cc(OC)c(OC)cc23)c1")
"label 1"
>>> category("CCNC(=O)CC1N=C(c2ccc(Cl)cc2)c2cc(OC)ccc2-n2c(C)nnc21 (stereo not drawn) + CNCc1ccccc1-c1csc(C(C)Nc2nc(C)nc3cc(OC)c(OC)cc23)c1")
"label 0"

Status in this test for COc1cc(Nc2ncc3c(n2)-c2ccc(Cl)cc2C(c2c(F)cccc2OC)=NC3)ccc1C(=O)O + COc1cc2nc(C)nc(NC(C)c3cc(N)cc(C(F)(F)F)c3)c2cc1OC1CCOC1 ?
label 0

* * *

// viability, T/C lookup, one value per entry
- System: HUVEC/MSC spheroids viability
- Test: Human HUVEC/MSC cell line growth inhibition [KRAS2];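 further: percent of DMSO vehicle control luminescence so 100% = untreated viability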
- Test Context: second compound 1 µM; first compound 0.0949 µM; active compounds read low
- Source text: Multicellular complex tumor spheroid response to RAS pathway inhibitors in combination with a targeted agents in patient-derived cell lines with oncogenic KRAS variants from multiple cancer types A high-throughput screen of multi-cell type tumor spheroids was designed to identify active combinations of targeted small molecules and KRAS pathway inhibitors. […] Compounds. […] If the clinical Cmax for an agent had not been determined, the highest concentration tested was 10 microM. […]

Check HUVEC/MSC spheroids viability data and give viability, T/C for CC(=O)OC12COC1CC(O)C1(C)C(=O)C(O)C3=C(C)C(OC(=O)C(O)C(NC(=O)OC(C)(C)C)c4ccccc4)CC(O)(C(OC(=O)c4ccccc4)C21)C3(C)C (stereo not drawn) + COc1cc2nc(C)nc(NC(C)c3cc(N)cc(C(F)(F)F)c3)c2cc1OC1CCOC1 .
37.2%

Check HUVEC/MSC spheroids viability data and give viability, T/C for CC(=O)OC12COC1CC(O)C1(C)C(=O)C(O)C3=C(C)C(OC(=O)C(O)C(NC(=O)OC(C)(C)C)c4ccccc4)CC(O)(C(OC(=O)c4ccccc4)C21)C3(C)C (stereo not drawn) + C=CC(=O)N1CCN(c2nc(=O)n(-c3c(C)ccnc3C(C)C)c3nc(-c4c(O)cccc4F)c(F)cc23)C(C)C1 .
59.2%

Check HUVEC/MSC spheroids viability data and give viability, T/C for CC1COCCN1c1cc(-c2ccnn2C)c2ccnc(-c3ccn[nH]3)c2n1 (stereo not drawn) + CC1OCC2(CCN(c3cnc(Sc4ccnc(N)c4Cl)c(N)n3)CC2)C1N .
78.3%

* * *

- Test system: HUVEC/MSC spheroids viability
- Test: Human HUVEC/MSC cell line growth inhibition [KRAS2];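 further: percent of DMSO vehicle control luminescence so 100% = untreated viability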
- Test Context: second compound 1 µM; first compound 0.0316 µM; active compounds read low
// viability, T/C lookup, one value per entry
// units = %; emit number, no label

>>> assay_result("CC(C)NCC(C(=O)N1CCN(c2ncnc3c2C(C)CC3O)CC1)c1ccc(Cl)cc1 (stereo not given) + COc1cc2nc(C)nc(NC(C)c3cc(N)cc(C(F)(F)F)c3)c2cc1OC1CCOC1")
85.1
>>> assay_result("Cn1nccc1Nc1nccc(-c2cc3c(s2)C(C)(C)N(CCN2CCOCC2)C3=O)n1 + CNCc1ccccc1-c1csc(C(C)Nc2nc(C)nc3cc(OC)c(OC)cc23)c1")
83
>>> assay_result("CN(C)C/C=C/C(=O)Nc1cc2c(Nc3ccc(F)c(Cl)c3)ncnc2cc1O[C@H]1CCOC1 + C=CC(=O)N1CCN(c2nc(=O)n(-c3c(C)ccnc3C(C)C)c3nc(-c4c(O)cccc4F)c(F)cc23)C(C)C1")
112
>>> assay_result("CN(C)C/C=C/C(=O)Nc1cc2c(Nc3ccc(F)c(Cl)c3)ncnc2cc1O[C@H]1CCOC1 + CNCc1ccccc1-c1csc(C(C)Nc2nc(C)nc3cc(OC)c(OC)cc23)c1")
72.7

Now turn to the next compound.
Check HUVEC/MSC spheroids viability data and give viability, T/C for CC1(C)CCC(CN2CCN(c3ccc(C(=O)NS(=O)(=O)c4ccc(NCC5CCOCC5)c([N+](=O)[O-])c4)c(Oc4cnc5[nH]ccc5c4)c3)CC2)=C(c2ccc(Cl)cc2)C1 + CC1OCC2(CCN(c3cnc(Sc4ccnc(N)c4Cl)c(N)n3)CC2)C1N .
91

* * *

- Test system: HUVEC/MSC spheroids viability
- Test: Human HUVEC/MSC cell line growth inhibition [KRAS2];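 further: percent of DMSO vehicle control luminescence so 100% = untreated viability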
- Test Context: second compound 1 µM; first compound 0.000316 µM; active compounds read low
// viability, T/C lookup, one value per entry

>>> assay_result("CC(C)n1nc(-c2ccc3oc(N)nc3c2)c2c(N)ncnc21 + C=CC(=O)N1CCN(c2nc(=O)n(-c3c(C)ccnc3C(C)C)c3nc(-c4c(O)cccc4F)c(F)cc23)C(C)C1")
"94%"
>>> assay_result("Cn1ncnc1[C@H]1c2n[nH]c(=O)c3cc(F)cc(c23)N[C@@H]1c1ccc(F)cc1 + C=CC(=O)N1CCN(c2nc(=O)n(-c3c(C)ccnc3C(C)C)c3nc(-c4c(O)cccc4F)c(F)cc23)C(C)C1")
"114%"
>>> assay_result("Cn1ncnc1[C@H]1c2n[nH]c(=O)c3cc(F)cc(c23)N[C@@H]1c1ccc(F)cc1 + CNCc1ccccc1-c1csc(C(C)Nc2nc(C)nc3cc(OC)c(OC)cc23)c1")
"67.3%"
>>> assay_result("CC(C)n1nc(-c2ccc3oc(N)nc3c2)c2c(N)ncnc21 + CNCc1ccccc1-c1csc(C(C)Nc2nc(C)nc3cc(OC)c(OC)cc23)c1")
"70.1%"
>>> assay_result("CC(C)n1nc(-c2ccc3oc(N)nc3c2)c2c(N)ncnc21 + CC1OCC2(CCN(c3cnc(Sc4ccnc(N)c4Cl)c(N)n3)CC2)C1N")
"83.8%"

Now turn to the next compound.
Check HUVEC/MSC spheroids viability data and give viability, T/C for CN(C)C/C=C/C(=O)Nc1cc2c(Nc3ccc(F)c(Cl)c3)ncnc2cc1O[C@H]1CCOC1 + CNCc1ccccc1-c1csc(C(C)Nc2nc(C)nc3cc(OC)c(OC)cc23)c1 .
78.3%

* * *

- Test system: HUVEC/MSC spheroids viability
- Test: Human HUVEC/MSC cell line growth inhibition [KRAS2];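 further: percent of DMSO vehicle control luminescence so 100% = untreated viability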
- Test Context: second compound 0.0316 µM; first compound 0.01 µM; active compounds read low
Measured Quantity: viability, T/C

Item CCN1CCN(Cc2ccc(Nc3ncc(F)c(-c4cc(F)c5nc(C)n(C(C)C)c5c4)n3)nc2)CC1 + CNCc1ccccc1-c1csc(C(C)Nc2nc(C)nc3cc(OC)c(OC)cc23)c1 : provide viability, T/C
93.7%

Item CC(C)n1nc(-c2ccc3oc(N)nc3c2)c2c(N)ncnc21 + CNCc1ccccc1-c1csc(C(C)Nc2nc(C)nc3cc(OC)c(OC)cc23)c1 : provide viability, T/C
44%

Item CN(C)C/C=C/C(=O)Nc1cc2c(Nc3ccc(F)c(Cl)c3)ncnc2cc1O[C@H]1CCOC1 + COc1cc2nc(C)nc(NC(C)c3cc(N)cc(C(F)(F)F)c3)c2cc1OC1CCOC1 : provide viability, T/C
92.8%

* * *

- Test system: HUVEC/MSC spheroids viability
- Test: Human HUVEC/MSC cell line growth inhibition [KRAS2];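 further: percent of DMSO vehicle control luminescence so 100% = untreated viability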
- Test Context: second compound 0.03 µM; first compound 0.01 µM; active compounds read low
Measured Quantity: viability, T/C (%)
// units = %; emit number, no label

Check HUVEC/MSC spheroids viability data and give viability, T/C for CN(C)C/C=C/C(=O)Nc1cc2c(Nc3ccc(F)c(Cl)c3)ncnc2cc1O[C@H]1CCOC1 + C=CC(=O)N1CCN(c2nc(OCC3CCCN3C)nc3c2CCN(c2cccc4cccc(C)c24)C3)CC1CC#N .
78.8
